measured.on: PRMT5-MEP50 (Homo sapiens, UniProt O14744)
Construct: The compounds were tested by means of FP with the full-length PRMT5-MEP50 complex; made in house
Sequence (O14744 whole entry): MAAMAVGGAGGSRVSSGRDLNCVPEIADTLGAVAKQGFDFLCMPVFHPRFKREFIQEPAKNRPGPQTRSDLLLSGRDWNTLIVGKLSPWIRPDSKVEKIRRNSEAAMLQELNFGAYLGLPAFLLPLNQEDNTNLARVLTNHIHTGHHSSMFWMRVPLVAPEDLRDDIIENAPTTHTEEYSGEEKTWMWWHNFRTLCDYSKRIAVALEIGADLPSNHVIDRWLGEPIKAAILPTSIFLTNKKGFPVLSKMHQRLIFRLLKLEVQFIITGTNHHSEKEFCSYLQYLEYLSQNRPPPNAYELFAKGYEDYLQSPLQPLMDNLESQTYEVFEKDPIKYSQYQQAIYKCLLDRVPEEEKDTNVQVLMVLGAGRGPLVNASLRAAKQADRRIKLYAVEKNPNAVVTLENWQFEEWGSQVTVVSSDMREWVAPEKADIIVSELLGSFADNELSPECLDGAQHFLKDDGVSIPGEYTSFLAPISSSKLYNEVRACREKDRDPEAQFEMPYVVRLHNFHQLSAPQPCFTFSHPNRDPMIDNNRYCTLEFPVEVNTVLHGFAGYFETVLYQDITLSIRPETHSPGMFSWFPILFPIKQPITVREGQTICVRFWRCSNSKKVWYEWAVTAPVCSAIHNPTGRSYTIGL
Sequence (Q9BQA1 whole entry partner): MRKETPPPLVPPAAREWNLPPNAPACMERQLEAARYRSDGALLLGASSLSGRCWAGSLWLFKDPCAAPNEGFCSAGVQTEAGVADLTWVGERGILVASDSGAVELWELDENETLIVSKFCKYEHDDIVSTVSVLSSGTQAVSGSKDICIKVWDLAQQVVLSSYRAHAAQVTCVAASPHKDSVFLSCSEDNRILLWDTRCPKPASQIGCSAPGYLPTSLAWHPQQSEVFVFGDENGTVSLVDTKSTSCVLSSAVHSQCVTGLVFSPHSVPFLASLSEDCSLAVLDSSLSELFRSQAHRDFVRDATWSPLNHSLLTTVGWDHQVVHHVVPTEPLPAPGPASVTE
method.summary: Direct binding fluorescence polarization (FP) assay of FITC-labeled peptides
condition.parameters: supplementary CSV, read-out: PRMT5-MEP50 Kd
Square brackets hold non-standard residues; d marks the D form. Peptide text beside a SMILES is read from it. * marks the point of attachment. FITC = O=C1OC2(c3ccc(O)cc3Oc3cc(O)ccc32)c2ccc(NC(=S)*)cc21; Phe(F5) = N[C@@H](Cc1c(F)c(F)c(F)c(F)c1F)C(=O)O; NMeF = CN[C@@H](Cc1ccccc1)C(=O)O; 2Pal = N[C@@H](Cc1ccccn1)C(=O)O
quantity.kind: Kd

Use these answered entries as a reference point.
| molecule | Kd |
| --- | --- |
| CC(=O)N[C@H](C(=O)N1CCC[C@H]1C(=O)NCC(=O)N[C@@H](CC(N)=O)C(=O)N[C@@H](Cc1ccccc1)C(=O)N[C@@H](CC(=O)O)C(=O)N[C@@H](CC(=O)O)C(=O)N[C@@H](C)C(=O)N[C@@H](CC(=O)O)C(=O)N[C@@H](CCCCNC(=S)Nc1ccc2c(c1)C(=O)OC21c2ccc(O)cc2Oc2cc(O)ccc21)C(N)=O)C(C)C [Compound S8] (Ac-VPGNFDDADK(FITC)-NH2) | > 1000 nM |
| CC(C)[C@H](NC(=O)[C@H](CCCNC(=N)N)NC(=O)[C@H](CO)NC(=O)COCCOCCNC(=S)Nc1ccc2c(c1)C(=O)OC21c2ccc(O)cc2Oc2cc(O)ccc21)C(=O)N[C@H](C(=O)N1CCC[C@H]1C(=O)NC1CNC(=O)CC[C@@H](C(=O)N[C@@H](CC(=O)O)C(=O)N[C@@H](C)C(=O)N[C@@H](CC(=O)O)C(N)=O)NC(=O)[C@H](Cc2ccccc2)NC(=O)[C@H](CCC(N)=O)NC1=O)C(C)C (stereo in doubt) | > 2000 nM |
| CC(C)[C@H](NC(=O)[C@H](CCCNC(=N)N)NC(=O)[C@H](CO)NC(=O)COCCOCCNC(=S)Nc1ccc2c(c1)C(=O)OC21c2ccc(O)cc2Oc2cc(O)ccc21)C(=O)N[C@H](C(=O)N1CCC[C@H]1C(=O)N[C@@H]1CCNC(=O)C[C@H](C(=O)N[C@@H](CC(=O)O)C(=O)N[C@@H](C)C(=O)N[C@@H](CC(=O)O)C(N)=O)NC(=O)[C@H](Cc2ccccc2)NC(=O)[C@H](CCC(N)=O)NC1=O)C(C)C | > 2000 nM |
| CC(=O)N[C@H](C(=O)N1CCC[C@H]1C(=O)NCC(=O)N[C@@H](CCC(N)=O)C(=O)N[C@@H](Cc1ccccn1)C(=O)N[C@@H](CC(=O)O)C(=O)N[C@@H](CC(=O)O)C(=O)N[C@@H](C)C(=O)N[C@@H](CC(=O)O)C(=O)N[C@@H](CCCCNC(=S)Nc1ccc2c(c1)C(=O)OC21c2ccc(O)cc2Oc2cc(O)ccc21)C(N)=O)C(C)C [Compound S17] (Ac-VPGQ[2Pal]DDADK(FITC)-NH2) | > 1000 nM |
| CC(=O)N[C@H](C(=O)N1CCC[C@H]1C(=O)NCC(=O)N[C@@H](CCC(N)=O)C(=O)N[C@@H](Cc1c(F)c(F)c(F)c(F)c1F)C(=O)N[C@@H](CC(=O)O)C(=O)N[C@@H](CC(=O)O)C(=O)N[C@@H](C)C(=O)N[C@@H](CC(=O)O)C(=O)N[C@@H](CCCCNC(=S)Nc1ccc2c(c1)C(=O)OC21c2ccc(O)cc2Oc2cc(O)ccc21)C(N)=O)C(C)C [Compound S13] (Ac-VPGQ[Phe(F5)]DDADK(FITC)-NH2) | > 1000 nM |

Kindly consider the entry below.
The reported value for CC(=O)N[C@H](C(=O)N1CCC[C@H]1C(=O)NCC(=O)N[C@@H](CCC(N)=O)C(=O)N(C)[C@@H](Cc1ccccc1)C(=O)N[C@@H](CC(=O)O)C(=O)N[C@@H](CC(=O)O)C(=O)N[C@@H](C)C(=O)N[C@@H](CC(=O)O)C(=O)N[C@@H](CCCCNC(=S)Nc1ccc2c(c1)C(=O)OC21c2ccc(O)cc2Oc2cc(O)ccc21)C(N)=O)C(C)C [Compound 47, Ac-VPGQ-(N-Me)F-DDADK(Fitc)-NH2] (Ac-VPGQ[NMeF]DDADK(FITC)-NH2) in terms of Kd is > 2000 nM
